- study system: HIV Env of isolate 928-28 (clade AG) (HIV)
- experiment description: cell-based or functional assay
experimental readout: IC50 (µg/ml) with constrains (µg/mL)
// note: answer is a bare numeric in µg/mL

| binder | value measured |
| --- | --- |
| ePGDM9 (antibody, V domains shown) VH: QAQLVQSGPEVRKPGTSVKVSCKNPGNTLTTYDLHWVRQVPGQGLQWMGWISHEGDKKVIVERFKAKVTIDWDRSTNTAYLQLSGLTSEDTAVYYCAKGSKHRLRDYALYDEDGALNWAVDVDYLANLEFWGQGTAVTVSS VL: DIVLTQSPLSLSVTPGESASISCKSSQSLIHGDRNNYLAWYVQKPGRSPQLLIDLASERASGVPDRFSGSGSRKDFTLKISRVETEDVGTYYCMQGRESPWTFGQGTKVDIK | 0.027 |
| PGDM1400 (antibody, V domains shown) VH: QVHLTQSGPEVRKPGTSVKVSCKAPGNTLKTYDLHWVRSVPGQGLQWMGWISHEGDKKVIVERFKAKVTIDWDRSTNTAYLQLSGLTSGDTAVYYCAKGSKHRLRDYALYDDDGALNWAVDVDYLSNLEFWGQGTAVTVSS VL: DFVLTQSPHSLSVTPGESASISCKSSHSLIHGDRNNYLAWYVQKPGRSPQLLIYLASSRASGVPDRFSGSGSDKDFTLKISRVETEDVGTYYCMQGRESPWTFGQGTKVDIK | 0.069 |
| ePGDM13 (antibody, V domains shown) VH: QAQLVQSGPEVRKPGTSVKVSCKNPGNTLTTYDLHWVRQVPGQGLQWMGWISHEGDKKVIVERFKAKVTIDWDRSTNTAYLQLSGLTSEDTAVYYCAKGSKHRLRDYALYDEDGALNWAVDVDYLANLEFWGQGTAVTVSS VL: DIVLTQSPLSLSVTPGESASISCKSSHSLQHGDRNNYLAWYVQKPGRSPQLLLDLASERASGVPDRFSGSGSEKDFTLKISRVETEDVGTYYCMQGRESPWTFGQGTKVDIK | 0.019 |

Then this binder:
Input ePGDM5 (antibody, V domains shown) VH: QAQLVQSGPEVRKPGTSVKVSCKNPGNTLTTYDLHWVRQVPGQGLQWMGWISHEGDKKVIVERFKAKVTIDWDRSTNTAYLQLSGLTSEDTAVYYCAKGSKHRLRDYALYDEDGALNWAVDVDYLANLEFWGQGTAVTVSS VL: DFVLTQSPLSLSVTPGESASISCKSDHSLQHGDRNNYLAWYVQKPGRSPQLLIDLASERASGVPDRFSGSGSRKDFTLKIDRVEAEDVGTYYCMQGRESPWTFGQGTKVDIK . Output IC50 (µg/ml) with constrains: 0.031
